B1: HDV Ribozyme (parent)
chain: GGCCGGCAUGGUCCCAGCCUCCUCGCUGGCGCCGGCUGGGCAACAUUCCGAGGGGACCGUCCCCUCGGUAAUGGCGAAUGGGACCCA

Variants of: B1
Run description: self-cleavage, relative activity (ratio to wild type); higher = more cleavage; co-transcriptional
// no strictly below 0.2 in self-cleavage; yes otherwise

Here's what some known entries look like.
Mutant name	Label class
U65G G73A	yes
C44U U69A	yes
G25U A83C	no
C26A A78G	yes
U46A A83G	yes

Would you kindly look at the next entry?
Input line: Say whether C30G G54C shows self-cleavage of 0.2 or more.
Output line: no
